Molecular target: human Claudin-6 (CLDN6) (human) (UniProt P56747)
Assay: FACS, limiting dilution, OV90 cells
Simple rule here: FACS signal at 8 nM less than 10000 is true, otherwise false.

- Binder: "AB1-11 (antibody, V domains shown, humanized; also called humanized AB1-11; HU-11) VH: QVQLVQSGAEVKKPGASVKMSCKASGYTFTTYTMHWVRQAPGQGLEWIGFINPSSGYTDYAQKFQGRVTLTADKSTSTVYMELSSLRSEDTAVYYCANGDYYVAYWGQGTLVTVSS VL: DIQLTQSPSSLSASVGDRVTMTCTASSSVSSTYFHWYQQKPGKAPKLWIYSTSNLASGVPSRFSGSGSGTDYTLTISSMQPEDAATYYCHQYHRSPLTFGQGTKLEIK"
  Class: "true"
- Binder: "AB S10 (antibody, V domains shown) VH: QVQLVQSGAEVKKPGASVKMSCKASGYTFTTYTMHWVRQAPGQGLEWIGFINPSSGYTEYAQKFQGRVTLTADKSTSTVYMELSSLRSEDTAVYYCANGDYYVGYWGQGTLVTVSS VL: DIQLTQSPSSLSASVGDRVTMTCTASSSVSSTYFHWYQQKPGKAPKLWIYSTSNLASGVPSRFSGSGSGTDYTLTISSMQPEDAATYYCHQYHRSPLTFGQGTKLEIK"
  Class: "false"
- Binder: "AB S9 (antibody, V domains shown) VH: QVQLVQSGAEVKKPGASVKMSCKASGYTFTTYTIHWVRQAPGQGLEWIGVINPSSGYTDYAQKFQGRVTLTADKSTSTVYMELSSLRSEDTAVYFCANGDYYVGYWGQGTLVTVSS VL: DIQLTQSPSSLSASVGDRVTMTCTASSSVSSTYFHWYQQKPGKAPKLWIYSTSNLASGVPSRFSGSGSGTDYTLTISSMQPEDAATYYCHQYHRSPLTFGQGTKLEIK"
  Class: "false"
- Binder: "AB S5 (antibody, V domains shown) VH: EVQLLESGGGLVQPGGSMRLSCAASGFTFSNYWMNWVRQAPGKGLEWLAQIRLKSDNYATHYTDSVKGRFTISRDDSKRTVYLQMNSLRAEDTGIYYCSDGPPSGSWGQGTLLTVSS VL: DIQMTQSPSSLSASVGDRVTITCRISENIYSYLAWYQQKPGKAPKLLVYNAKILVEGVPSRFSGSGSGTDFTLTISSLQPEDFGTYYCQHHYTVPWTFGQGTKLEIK"
  Class: "true"
- Binder: "AB S11 (antibody, V domains shown) VH: QVQLVQSGAEVKKPGASVKMSCKASGYTFTTYTIHWVRQAPGQGLEWIGVINPSSGYTEYAQKFQGRVTLTADKSTSTVYMELSSLRSEDTAVYFCANGDYYVAYWGQGTLVTVSS VL: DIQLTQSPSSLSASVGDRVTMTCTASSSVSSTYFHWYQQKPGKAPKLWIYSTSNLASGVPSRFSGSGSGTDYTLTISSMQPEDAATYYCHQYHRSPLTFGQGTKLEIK"
  Class: "false"
- Binder: "AB S7 (antibody, V domains shown) VH: QVQLVQSGAEVKKPGASVKMSCKASGYTFTTYTIHWVRQAPGQGLEWIGFINPSSGYTEYAQKFQGRVTLTADKSTSTVYMELSSLRSEDTAVYFCANGDYYVAYWGQGTLVTVSS VL: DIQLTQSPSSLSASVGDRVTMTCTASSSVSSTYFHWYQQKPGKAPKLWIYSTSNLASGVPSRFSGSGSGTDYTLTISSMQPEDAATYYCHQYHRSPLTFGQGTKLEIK"
  Class: "true"
- Binder: "AB S6 (antibody, V domains shown) VH: EVQLLESGGGLVQPGGSMRLSCAASGFTFSNYWMNWVRQAPGKGLEWLAQIRLKSDNYVTHYADSVKGRFTISRDDSKRTVYLQMNSLRAEDTGTYYCNDGPPSGSWGQGTLLTVSS VL: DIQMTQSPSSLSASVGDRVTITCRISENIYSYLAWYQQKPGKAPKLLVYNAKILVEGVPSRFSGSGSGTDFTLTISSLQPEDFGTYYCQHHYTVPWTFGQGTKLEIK"
  Class: "true"
- Binder: "AB S4 (antibody, V domains shown) VH: EVQLLESGGGLVQPGGSMRLSCAASGFTFSNYWMNWVRQAPGKGLEWIAQIRLKSDNYATHYTDSVKGRFTISRDDSKSTVYLQMNSLRAEDTGTYYCNDGPPSGSWGQGTLLTVSS VL: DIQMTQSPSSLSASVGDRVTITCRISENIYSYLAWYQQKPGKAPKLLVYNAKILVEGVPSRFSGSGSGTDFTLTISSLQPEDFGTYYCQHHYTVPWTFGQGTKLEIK"
  Class: "true"
- Binder: "AB S8 (antibody, V domains shown) VH: QVQLVQSGAEVKKPGASVKMSCKASGYTFTTYTMHWVRQAPGQGLEWIGVINPSSGYTEYAQKFQGRVTLTADKSTSTVYMELSSLRSEDTAVYFCANGDYYVGYWGQGTLVTVSS VL: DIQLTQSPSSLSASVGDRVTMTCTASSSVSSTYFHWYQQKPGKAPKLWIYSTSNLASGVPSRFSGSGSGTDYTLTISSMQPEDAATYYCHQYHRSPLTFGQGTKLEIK"
  Class: "false"
- Binder: "AB S3 (antibody, V domains shown) VH: EVQLLESGGGLVQPGGSMRLSCAASGFTFSNYWMNWVRQAPGKGLEWIAQIRLKSDNYVTHYTDSVKGRFTISRDDSKRTVYLQMNSLRAEDTGIYYCSDGPPSGSWGQGTLLTVSS VL: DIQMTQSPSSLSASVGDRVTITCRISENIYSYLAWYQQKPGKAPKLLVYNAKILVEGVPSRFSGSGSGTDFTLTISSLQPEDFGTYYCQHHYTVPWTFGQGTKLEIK"
  Class: "true"

Where do these numbers come from? They come from patent US20230049752A1.
